Here we gather Ki data for the protein given by its sequence reported by several publications.
Target chain: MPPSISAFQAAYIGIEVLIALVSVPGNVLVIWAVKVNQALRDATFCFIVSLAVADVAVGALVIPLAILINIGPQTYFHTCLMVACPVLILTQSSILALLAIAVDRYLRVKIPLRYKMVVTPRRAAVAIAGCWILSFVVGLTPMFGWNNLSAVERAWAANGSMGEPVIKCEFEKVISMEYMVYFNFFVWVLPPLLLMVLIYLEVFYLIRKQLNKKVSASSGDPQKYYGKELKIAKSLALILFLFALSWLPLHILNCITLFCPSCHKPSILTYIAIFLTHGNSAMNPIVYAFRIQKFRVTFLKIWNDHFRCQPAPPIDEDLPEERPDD
Result type: Ki (µM)

Below: 6 compounds and their reported Ki.
- Compound: "Cn1c(=O)c2c(nc3n2CCN(Cc2ccc(Cl)c(Cl)c2)C3)n(C)c1=O"
  Unit abbrev: "µM"
  Ki: 0.791
- Compound: "Cc1cccc(-c2cc(-c3ccccc3)nc(N)c2C#N)c1"
  Unit abbrev: "µM"
  Ki: 0.015
- Compound: "COc1ccc(-n2cc3c(n2)c(NC(=O)c2ccccc2)nc2ccccc23)cc1"
  Unit abbrev: "µM"
  Ki: 0.25
- Compound: "O=C(Nc1ccc(-c2ccncn2)c(-c2ccco2)n1)C1CC1"
  Unit abbrev: "µM"
  Ki: 0.931
- Compound: "Nc1nc(OCCc2cccc(F)c2)nc2c1ncn2[C@@H]1O[C@H](CO)[C@@H](O)[C@H]1O"
  Unit abbrev: "µM"
  Ki: 0.312
- Compound: "Cc1nc2c(=O)n(Cc3ccccc3)nc(C3CCCCC3)c2c2cc(-c3ccccc3)nn12"
  Unit abbrev: "µM"
  Ki: 0.0095

a = Nc1nc(-c2ccc(O)c(O)c2)cn2c(=O)n(-c3ccccc3)nc12
b = Nc1nc(C(=O)NCc2cccc3cccnc23)c2ccccc2n1
c = Cc1[nH]c2nc(-c3ccccc3)nc(N[C@@H]3Cc4ccccc4[C@H]3O)c2c1C
d = CCN(CC)CCOc1cc(-c2nc3c([nH]2)c(=O)n(C)c(=O)n3C)ccc1OC
e = O=C(Nc1ccccc1)Nc1ncc(C(=O)NCCc2ccccc2)c2nc(-c3ccco3)nn12
// sort entries: Ki, high to low Would you mind listing the labels in the order requested?
d, c, e, b, a
(d: 43 µM, c: 0.896 µM, e: 0.365 µM, b: 0.09 µM, a: 0.0426 µM)
